B1: EEHEE_rd4_0647 (parent)
chain: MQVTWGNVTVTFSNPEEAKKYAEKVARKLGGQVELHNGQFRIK

Variants of: B1
Experiment: folding stability dG (cDNA display proteolysis); higher = more stable
Settings: PBS, room temperature
metric: folding stability dG (kcal/mol)

mut=R41C units_of_measure=kcal/mol result=2.94
mut=M1Y units_of_measure=kcal/mol result=3.45
mut=W5T units_of_measure=kcal/mol result=1.19
mut=K28C units_of_measure=kcal/mol result=3.7
mut=V25L units_of_measure=kcal/mol result=2.95
mut=R41V units_of_measure=kcal/mol result=3.5
mut=Y21S units_of_measure=kcal/mol result=0.62
mut=P15I units_of_measure=kcal/mol result=2.99
mut=G38R units_of_measure=kcal/mol result=1.89
mut=E17I units_of_measure=kcal/mol result=2.66
mut=I42T units_of_measure=kcal/mol result=0.547
mut=V8T units_of_measure=kcal/mol result=2.64
mut=K43I units_of_measure=kcal/mol result=3.52
mut=V25Y units_of_measure=kcal/mol result=1.48
mut=K20S units_of_measure=kcal/mol result=2.64
mut=E17N units_of_measure=kcal/mol result=2.47
mut=T11N units_of_measure=kcal/mol result=2.58
mut=V3D units_of_measure=kcal/mol result=0.045
mut=K20Q units_of_measure=kcal/mol result=2.72
mut=Y21F units_of_measure=kcal/mol result=3.05
mut=G31E units_of_measure=kcal/mol result=1.46
mut=G31P units_of_measure=kcal/mol result=0.55
